# experimental_details: Extended single-dose toxicity study including safety pharmacology endpoints, i.v. bolus (GLP)
# Format: in vivo, beagle dogs
# experimental_parameters: beagle, dog, plasma, iv, 80 ug/kg; Female; 80 μg/kg single i.v. bolus; mean n = 3; read-out: AUClast
# Procedure: The following parameters and endpoints were evaluated: mortality, clinical observations, body weights, food consumption, body temperature, local reactions, ophthalmology, clinical pathology parameters (hematology, coagulation, clinical chemistry, and urinalysis), cardiovascular and respiratory safety pharmacology endpoints along with FOB evaluation, organ weights, and macroscopic and microscopic examinations, and TK parameters. […]
measured_parameter: AUC(0-t) (ng·h/mL)
Numbers only, in ng·h/mL.

# return recorded AUC(0-t) for input CC(C)C[C@@H]1NC(=O)[C@H](Cc2cccc(NC(=O)CCCS(N)(=O)=O)c2)NC(=O)[C@H](CC(=O)O)NC(=O)[C@H]2CCCN2C(=O)[C@H](CCC(=O)O)NC(=O)[C@@H](NC(=O)[C@H](CCC(N)=O)NC(=O)CN2CCN(C(=O)CN3CCN(CC(=O)O)CCN(CC(=O)O)CCN(CC(=O)O)CC3)CC2)CSCc2cccc(c2)CSC[C@@H](C(N)=O)NC(=O)[C@H](CO)NC(=O)[C@H](Cc2c[nH]c3ccccc23)NC(=O)[C@H]([C@@H](C)O)NC1=O [DPI-4452]
144

###

# measurement_target: human carbonic anhydrase IX (hCAIX-Fc) (Homo sapiens, UniProt Q16790)
# Construct: purchased SinoBliological (Sino Biological) 10107-H02H
# experimental_details: Surface plasmon resonance assay with hCAIX-Fc
# Assay type: binding
# experimental_parameters: SPR, hCAIX-Fc captured, 25° C.; read-out: pKD category (activity) (converted)
Starred links: 1 amine or outer side, 2 acyl side, 3 side chain; linkers in the order of their positions; H or OH if unused. Positions of bridges follow the written chain, without caps; N, C: chain ends. Non-standard residues stand in square brackets, D forms with d. Residues, ends and D or L forms follow the SMILES beside them. *: point of attachment. DOTA = O=C(O)CN1CCN(CC(=O)O)CCN(CC(=O)*)CCN(CC(=O)O)CC1; mXylylene = c1cc(C[*:1])cc(C[*:2])c1; X2 = O=C(CN1CCC(N[*:1])CC1)[*:2]; dPip = O=C(O)[C@H]1CCCCN1; Ac6c = NC1(C(=O)O)CCCCC1; Ac5c = NC1(C(=O)O)CCCC1
measured_parameter: Kd

The examples below pair each entry with its known result.
compound: CC(=O)N[C@H](C(=O)N[C@@H](Cc1ccc(O)cc1)C(=O)N[C@H]1CSCc2cccc(c2)CSC[C@@H](C(N)=O)NC(=O)[C@H](C)NC(=O)[C@H](Cc2c[nH]c3ccccc23)NC(=O)[C@H]([C@@H](C)O)NC(=O)[C@H](CC(C)C)NC(=O)[C@H](Cc2c[nH]c3ccccc23)NC(=O)[C@H](CC(=O)O)NC(=O)[C@@H](C)NC(=O)[C@H](CCC(=O)O)NC1=O)C(C)C [3BP-3280] (Ac-VYCE[dA]DWLTWAC-NH2; linker 3-12 via mXylylene)
measured_parameter: Kd
measured_value: < 0.01 µM

compound: CC(=O)N[C@H](C(=O)N[C@@H](Cc1ccc(O)cc1)C(=O)N[C@H]1CSCc2cccc(c2)CSC[C@@H](C(N)=O)NC(=O)[C@H](C)NC(=O)[C@H](Cc2c[nH]c3ccccc23)NC(=O)[C@H]([C@@H](C)O)NC(=O)[C@H](CC(C)C)NC(=O)[C@H](Cc2c[nH]c3ccccc23)NC(=O)[C@H](CC(=O)O)NC(=O)[C@H]2CCCCN2C(=O)[C@H](CCC(=O)O)NC1=O)C(C)C [3BP-3283] (Ac-VYCE[dPip]DWLTWAC-NH2; linker 3-12 via mXylylene)
measured_parameter: Kd
measured_value: < 0.01 µM

compound: CC(C)[C@H](NC(=O)CN1CCC(NC(=O)CN2CCN(CC(=O)O)CCN(CC(=O)O)CCN(CC(=O)O)CC2)CC1)C(=O)N[C@@H](Cc1ccc(O)cc1)C(=O)N[C@H]1CSCc2cccc(c2)CSC[C@@H](C(N)=O)NC(=O)[C@H](CO)NC(=O)[C@H](Cc2c[nH]c3ccccc23)NC(=O)[C@H]([C@@H](C)O)NC(=O)C2(CCCCC2)NC(=O)[C@H](Cc2c[nH]c3ccccc23)NC(=O)[C@H](CC(=O)O)NC(=O)[C@H]2CCCN2C(=O)[C@H](CCC(=O)O)NC1=O [3BP-3584] ({DOTA}-[X2]VYCE[dP]DW[Ac6c]TWSC-NH2; linker 4-13 via mXylylene)
measured_parameter: Kd
measured_value: < 0.01 µM

compound: CC(C)C[C@@H]1NC(=O)[C@H](Cc2cccc(NC(=O)c3cc(S(N)(=O)=O)c[nH]3)c2)NC(=O)[C@H](CC(=O)O)NC(=O)[C@H]2CCCN2C(=O)[C@H](CCC(=O)O)NC(=O)[C@@H](NC(=O)[C@H](CCC(N)=O)NC(=O)CN2CCN(C(=O)CN3CCN(CC(=O)O)CCN(CC(=O)O)CCN(CC(=O)O)CC3)CC2)CSCc2cccc(c2)CSC[C@@H](C(N)=O)NC(=O)[C@H](CO)NC(=O)[C@H](Cc2c[nH]c3ccccc23)NC(=O)[C@H]([C@@H](C)O)NC1=O
measured_parameter: Kd
measured_value: 0.01 to 0.0794 µM

# return recorded Kd for input CC(C)[C@H](NC(=O)CN1CCC(NC(=O)CN2CCN(CC(=O)O)CCN(CC(=O)O)CCN(CC(=O)O)CC2)CC1)C(=O)N[C@@H](Cc1ccc(O)cc1)C(=O)N[C@H]1CSCc2cccc(c2)CSC[C@@H](C(N)=O)NC(=O)[C@H](CO)NC(=O)[C@H](Cc2c[nH]c3ccccc23)NC(=O)[C@H]([C@@H](C)O)NC(=O)C2(CCCC2)NC(=O)[C@H](Cc2c[nH]c3ccccc23)NC(=O)[C@H](CC(=O)O)NC(=O)[C@H]2CCCN2C(=O)[C@H](CCC(=O)O)NC1=O [3BP-3587] ({DOTA}-[X2]VYCE[dP]DW[Ac5c]TWSC-NH2; linker 4-13 via mXylylene)
< 0.01 µM

###

# experimental_details: Biodistribution study (SPECT/CT) in SK-RC-52 tumor-bearing mice with or without gelofusine
# Type: in vivo, NMRI nude mice
# experimental_parameters: female, NMRI nude, mouse, in vivo, iv, total radioactivity, SK-RC-52 tumor mice, In-111-labeled, 4% gelofusine immediately before; Mean ± SEM, N=3; read-out: Peak Tumor Uptake
measured_parameter: tissue uptake
Could you give the number and then its unit, please?

# return recorded tissue uptake for input CC(C)C[C@@H]1NC(=O)[C@H](Cc2cccc(NC(=O)CCCS(N)(=O)=O)c2)NC(=O)[C@H](CC(=O)O)NC(=O)[C@H]2CCCN2C(=O)[C@H](CCC(=O)O)NC(=O)[C@@H](NC(=O)[C@H](CCC(N)=O)NC(=O)CN2CCN(C(=O)CN3CCN(CC(=O)O)CCN(CC(=O)O)CCN(CC(=O)O)CC3)CC2)CSCc2cccc(c2)CSC[C@@H](C(N)=O)NC(=O)[C@H](CO)NC(=O)[C@H](Cc2c[nH]c3ccccc23)NC(=O)[C@H]([C@@H](C)O)NC1=O
13.4 %ID/g

###

# experimental_details: Pharmacokinetic characterization in healthy dogs
# Type: in vivo, beagle dogs
# experimental_parameters: male, beagle, plasma, iv; dog, i.v. 0.8 mg/kg; read-out: terminal half-life (T1/2) (converted)
measured_parameter: half-life (min)
Answers are plain numbers, in min.

# return recorded half-life for input CC(C)C[C@@H]1NC(=O)[C@H](Cc2cccc(NC(=O)CCCS(N)(=O)=O)c2)NC(=O)[C@H](CC(=O)O)NC(=O)[C@H]2CCCN2C(=O)[C@H](CCC(=O)O)NC(=O)[C@@H](NC(=O)[C@H](CCC(N)=O)NC(=O)CN2CCN(C(=O)CN3CCN(CC(=O)O)CCN(CC(=O)O)CCN(CC(=O)O)CC3)CC2)CSCc2cccc(c2)CSC[C@@H](C(N)=O)NC(=O)[C@H](CO)NC(=O)[C@H](Cc2c[nH]c3ccccc23)NC(=O)[C@H]([C@@H](C)O)NC1=O
28.8

###

# experimental_details: Pharmacokinetic characterization in healthy dogs
# Assay type: in vivo, beagle dogs
# experimental_parameters: male, beagle, plasma, iv; dog, i.v. 0.1 mg/kg; read-out: volume of distribution
measured_parameter: Vd (L/kg)
Numbers only, in L/kg.

# return recorded Vd for input CC(C)C[C@@H]1NC(=O)[C@H](Cc2cccc(NC(=O)CCCS(N)(=O)=O)c2)NC(=O)[C@H](CC(=O)O)NC(=O)[C@H]2CCCN2C(=O)[C@H](CCC(=O)O)NC(=O)[C@@H](NC(=O)[C@H](CCC(N)=O)NC(=O)CN2CCN(C(=O)CN3CCN(CC(=O)O)CCN(CC(=O)O)CCN(CC(=O)O)CC3)CC2)CSCc2cccc(c2)CSC[C@@H](C(N)=O)NC(=O)[C@H](CO)NC(=O)[C@H](Cc2c[nH]c3ccccc23)NC(=O)[C@H]([C@@H](C)O)NC1=O [DPI-4452]
0.26
